System: DLD1
Experiment: TCF/Wnt firefly luciferase reporter signal relative to plate median (fraction of plate median); higher = higher Wnt reporter signal
Conditions: 5 µM; treatment time 24 h; reporter: 7TFP
I'd be grateful if you could share measured TCF/Wnt firefly luciferase reporter signal for these entries.
Give bare numbers.

Can you give me TCF/Wnt firefly luciferase reporter signal for all of these, one by one?
1. CN[C@@H]1[C@@H](O)[C@@H](O[C@@H]2[C@@H](O)[C@H](O[C@H]3OC(CN)=CC[C@H]3N)[C@@H](N)C[C@H]2N)OC[C@]1(C)O
2. Cc1ccccc1OCC(O)CO (stereo unspecified)

1. 0.933
2. 1.02

Give one value of TCF/Wnt firefly luciferase reporter signal per listed compound.
1. CC1(C)C=Cc2cc3ccc(=O)oc3cc2O1
2. Cc1ccc(C(C)C)cc2c(C)ccc1-2

1. 1.21
2. 1

For every record below, what is its TCF/Wnt firefly luciferase reporter signal?
1. CC(=O)O[C@]1(C(C)=O)CC[C@H]2[C@@H]3C=C(Cl)C4=CC(=O)CC[C@]4(C)[C@H]3CC[C@@]21C
2. CNCCCN1c2ccccc2CCc2ccccc21

0.981
0.868
